Assay: NCI Yeast Anticancer Drug Screen. Data for the bub3 strain (AID 167)
Conditions: S. cerevisiae bub3 mutant strain, at 50.0 µM
This is part of a sample that, as a whole, favours compounds with a hit. Of some 79,000 tested, about 15% had one in any assay. Calls of active or inactive are those of the source. Rule as the data show it: active = growth inhibition above about 70%; inactive = the rest.
Allowed answers: Y for active, N for inactive

Observe how each entry below is paired with its result.
Cc1nc(Cl)c(C#N)c(C)c1[N+](=O)[O-] : Y
CCOc1ccc2nc(C)cc(C)c2c1 : N
Cn1c(=O)c2c(nc(OCC(C)(C)C)n2C)n(C)c1=O : N
S=C(NC/C(Br)=C/Br)Nc1cccc2ccccc12 : Y
Cc1cc(Cl)ccc1N1C(=O)C(=O)C(c2nc3ccccc3o2)C(=O)C1=O : N

How was COc1ccc(Cc2nc3ccc(Cl)cc3[nH]2)cc1 classified in this test? Y

So what was the verdict on O=c1cc(Cl)c(Cl)nn1-c1ccccc1 in this test? N

* * *

Assay: NCI Yeast Anticancer Drug Screen. Data for the sgs1 mgt1 strain (AID 161);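 also: 0% = growth of cultures given vehicle only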
Settings: S. cerevisiae sgs1 mgt1 strain, at 50.0 µM (retest, dose inferred, filed as 5.0)
Compounds without any hit were thinned out: in the full panel of roughly 79,000, 15% have a hit. The source made the active and inactive calls. Cut-off read from the data, not from the text of the source: active = growth inhibition above about 70%; inactive = the rest.
Please answer using one outcome listed in class 1 = active, class 0 = inactive

Some solved entries appear below for comparison.
N#CC(C#N)=C(C1CC1)C1CC1 : class 1
CC(=O)O[C@@H]1c2c(c3c(=O)c4cccc(O)c4c(=O)c=3c2=[N+]=[N-])[C@H](OC(C)=O)[C@@H](OC(C)=O)[C@]1(C)O : class 1
Cc1cc(Cc2ccccc2Cl)ccc1O : class 1

I would be grateful if you could indicate the recorded call for [Pt].c1ccc(P(CCP(CCP(c2ccccc2)c2ccccc2)CCP(c2ccccc2)c2ccccc2)c2ccccc2)cc1 . class 1

Could you kindly confirm the outcome this assay logged for COc1ccc2c(c1)C1(C)CCCC(C)(C(=O)O)C1CC2 (stereo not drawn) ? class 1

* * *

Assay: NCI Yeast Anticancer Drug Screen. Data for the bub3 strain (AID 167)
Conditions: S. cerevisiae bub3 mutant strain, at 50.0 µM (retest, dose inferred, filed as 5.0), stronger effect = higher value
This is part of a sample that, as a whole, favours compounds with a hit. Of some 79,000 tested, about 15% had one in any assay.
In this section we review reported growth inhibition values for a set of compounds.
Give the value in % but do not write % after it.

Before answering, review these 2 worked examples.
CC1(CO)CCCC2(C)C1CCC1CC3C=CC12C1C(=O)OC(=O)C31 (configuration not stated) : 89
COc1ccc(N=Nc2ccc3oc(=O)c(C(=O)Nc4ccccc4C)cc3c2)cc1 : 86

Supply measured growth inhibition of C/C=C/c1cc2c(cc1O)CC[C@@H]1[C@@H]2CC[C@]2(C)[C@@H](O)CC[C@@H]12 in your reply. 99

Tell us which growth inhibition value is on record for Cc1cc(NC(=S)SCc2ccc3c(c2)OCO3)ccc1Cl 99

For the compound c1ccc2c(c1)Sc1nccc3ccnc-2c13 , give its reported growth inhibition. 92

Supply recorded growth inhibition for CCOC(=O)/C(=C\c1cccc(Br)c1)C(C)=O here. 100

Quote growth inhibition reported for CCCCCCCCCCCCCCCCCC(=O)Nc1ccn(C2OC(CO)C(O)C2O)c(=O)n1 (configuration not stated) please. 43

Using the record for O=c1[nH]c(C(F)(F)F)c(F)c(=O)[nH]1 , state its measured growth inhibition. -5

Report growth inhibition for Cc1ccccc1NCc1ccccc1Cl 99

Give reported growth inhibition value for O=C(Nc1ccc(Cl)cc1)OCC1C2C=CC(C2)C1CO (configuration not stated) 92

Give growth inhibition for the following compound: CCn1c2nc(=O)n(C)c(=O)c-2[n+]([O-])c2cc(C)ccc21 13

Respond only with growth inhibition recorded for Cc1cc(C[P+](c2ccccc2)(c2ccccc2)c2ccccc2)c(C)cc1C[P+](c1ccccc1)(c1ccccc1)c1ccccc1 66

Let me know recorded growth inhibition for CCOC(=O)Cc1nc2ccccc2s1 , thanks. 99

Using the record for NNC(=O)N/N=C(/CC1(O)C(=O)Nc2ccc(Br)cc21)c1ccccc1 (configuration not stated) , state its measured growth inhibition. 91

Please supply the value of reported growth inhibition for the item C=C(C)C1CC/C(C)=C/CCC2(C)OC2CC/C(CO)=C\C1O (configuration not stated) 94

Identify measured growth inhibition associated with COC12C=CC(CC1)C1=C2C(=O)c2nc(C)c(C)nc2C1=O (configuration not stated) 8

Indicate the recorded growth inhibition value for this compound: CCCCN(CCCC)CCNc1ccc(NS(=O)(=O)c2ccccc2)c2sc3ccccc3c(=O)c12 94

Entry CC(C)=CC(=O)OC(CCCc1ccccc1)c1ccc2c(c1)OCO2 (configuration not stated) needs its growth inhibition filled in; supply it. 33

* * *

Test: NCI Yeast Anticancer Drug Screen. Data for the rad50 strain (AID 155);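 also: 0% = growth of vehicle-only cultures of the same strain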
Details: S. cerevisiae rad50 strain growth inhibition; at 5.0 µM (retest, dose inferred, filed as 0.5); stronger effect = higher value
The panel holds about 79,000 compounds, 15% with a hit somewhere; the sample as a whole holds those more often.
Each record here notes measured growth inhibition.
The figure you give is taken to be in %; do not add the unit.

C1=Nc2ccccc2/C1=C/c1ccccc1 : 10

Check the records and state growth inhibition for COC(=O)C1(C)CCc2c(ccc3cccc(OC)c23)C1=O (configuration not stated) 0

Using known records, supply growth inhibition for O=[N+]([O-])/C=C/C=C/c1ccco1 -1

Let me know recorded growth inhibition for CC(C)NC(=O)OCCN=C1c2ccccc2CCc2ccccc21 , thanks. -17

Fill in reported growth inhibition for this entry: Oc1ccc(C(O)(c2ccccc2)c2ccccc2)c2ccccc12 45

Please report the measured growth inhibition for O=C(Cc1ccccc1)c1ccccc1C(=O)NNc1ccccc1 7

* * *

// reported growth inhibition per item
Experiment: NCI Yeast Anticancer Drug Screen. Data for the sgs1 mgt1 strain (AID 161);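 also: 0% = growth of cultures given vehicle only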
Settings: S. cerevisiae sgs1 mgt1 strain, at 5.0 µM (retest, dose inferred, filed as 0.5), stronger effect = higher value
About 79,000 compounds went through this panel and 15% of them were active in at least one assay; those are over-represented in the sample as a whole.
Use % as the unit, but write only the number.

Input CN(C)c1ccc(/C=N/c2nc(-c3ccccc3)cs2)cc1 , output reported growth inhibition. 5

* * *

Each item that follows carries a reported growth inhibition.
Test: NCI Yeast Anticancer Drug Screen. Data for the sgs1 mgt1 strain (AID 161);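 also: 0% = growth of cultures given vehicle only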
Settings: S. cerevisiae sgs1 mgt1 strain, at 50.0 µM (retest, dose inferred, filed as 5.0), stronger effect = higher value
Experimental: Growth inhibition of yeast strains with defined genetic alterations is measured as a screen for potential anti-cancer activity. Selected strains with alterations in DNA damage repair or cell cycle control were exposed to compounds and growth inhibition was measured relative to vehicle treated controls. The strain used in this assay is sgs1 mgt1
This is part of a sample that, as a whole, favours compounds with a hit. Of some 79,000 tested, about 15% had one in any assay.
Give just the number in %; leave the unit off.

O=S1(=O)CCN(c2ccccc2CC(c2c[nH]c3ccccc23)c2c[nH]c3ccccc23)CC1 : 79
CCN(CC)CCCCCCNc1cc(C)cc2ccc(C)nc12 : 58
CC12CCC(=O)C=C1CCC1C2CCC2(C)C(C(=O)Cn3cnc4c(=S)nc[nH]c43)CCC12 (stereo unspecified) : 23
[O-][n+]1c2ccccc2cc2c1c1ccccc1n2O : -3
CCCCN(CCCC)CCCCCCNc1cc(OC)cc2cccnc12 : 13

// next item, growth inhibition requested
Fill in growth inhibition for record C=C1C(C2(C)C(OC(C)=O)CC(=O)OC(C)(COC(C)=O)C2CC(=O)OC)C(OC=O)C(OC(=O)C(O)C(C)CC)C2(C)C(c3ccoc3)CC(=O)C12O (stereo unspecified) -32

* * *

Assay: NCI Yeast Anticancer Drug Screen. Data for the mec2-1 strain (AID 157)
Details: S. cerevisiae mec2-1 strain, at 50.0 µM
This is part of a sample that, as a whole, favours compounds with a hit. Of some 79,000 tested, about 15% had one in any assay. Calls of active or inactive are those of the source. Cut-off read from the data, not from the text of the source: active = growth inhibition above about 70%; inactive = the rest.
Give your call using only these classes: true (active), false (inactive)

O=c1cc(N=Nc2ccc(Cl)c(Cl)c2)[nH]c(=O)[nH]1 : true
CCCCNC(=S)NC1OC(CO)C(O)C(O)C1O (stereo not given) : true
C=C1CC2(CC(C(C)C)CCC2C)OC1=O (stereo not given) : false
O=[N+]([O-])/C(C(Cl)=C(Cl)Cl)=C(/Cl)SCc1ccccc1 : true

Name the outcome recorded for NCCNC[Si](c1ccccc1)(c1ccccc1)c1ccccc1 in the assay. false

* * *

Experiment: NCI Yeast Anticancer Drug Screen. Data for the sgs1 mgt1 strain (AID 161);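 also: 0% = growth of cultures given vehicle only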
Details: S. cerevisiae sgs1 mgt1 strain, at 5.0 µM (retest, dose inferred, filed as 0.5)
The panel holds about 79,000 compounds, 15% with a hit somewhere; the sample as a whole holds those more often. Active and inactive are the calls of the source. Rule as the data show it: active = growth inhibition above about 70%; inactive = the rest.
A correct response names exactly one class from active, inactive

Worked set:
S=C=NCCCCCCN=C=S : inactive
Nc1ccc(N=Nc2ccccc2)c2ccccc12 : inactive
CCCCOC(=O)c1n[nH]c(C)c1N=NN(C)C : active
O=P(O)(CN1CCN(CP(=O)(O)c2ccccc2)CCN(CP(=O)(O)c2ccccc2)CC1)c1ccccc1 : inactive

Please indicate how the test categorized c1ccc2c(c1)CCCc1cc3ccccc3nc1-2 . inactive
